Data origin, for the record: ChEMBL document CHEMBL4483862

# System: Plasmodium berghei
# test name: Luciferase/luciferin-expressing antifolate-resistant parasites were used to infect a culture of HepG2 cells that were pre-incubated with compounds. Infected hepatocytes emit light due to the luciferase reaction. Assay results are presented as the percent inhibition of light emission compared to control. […]
# Type: functional
# experimental setup: sporozoite, FFLUC_HILL_SLOPE 12, FFLUC_R_SQUARED 0.571, HEPG2TOX_HILL_SLOPE 0.228, HEPG2TOX_R_SQUARED 0.238, read-out: LUCIFERASE INFECTION ASSAY - IC50
metric: IC50

Which measured IC50 value corresponds to CC(C)(C)c1ccc(-c2nnc(SCc3ccc([N+](=O)[O-])cc3)n2-c2cccc(C(F)(F)F)c2)cc1 ? > 6.44 µM
